Test System: T1, C-terminal truncated RSV F protein (secreted, from recombinant baculovirus) (respiratory syncytial virus, UniProt P03420 26-524)
T1 construct: also called immobilized F protein
T1 sequence (P03420 26-524): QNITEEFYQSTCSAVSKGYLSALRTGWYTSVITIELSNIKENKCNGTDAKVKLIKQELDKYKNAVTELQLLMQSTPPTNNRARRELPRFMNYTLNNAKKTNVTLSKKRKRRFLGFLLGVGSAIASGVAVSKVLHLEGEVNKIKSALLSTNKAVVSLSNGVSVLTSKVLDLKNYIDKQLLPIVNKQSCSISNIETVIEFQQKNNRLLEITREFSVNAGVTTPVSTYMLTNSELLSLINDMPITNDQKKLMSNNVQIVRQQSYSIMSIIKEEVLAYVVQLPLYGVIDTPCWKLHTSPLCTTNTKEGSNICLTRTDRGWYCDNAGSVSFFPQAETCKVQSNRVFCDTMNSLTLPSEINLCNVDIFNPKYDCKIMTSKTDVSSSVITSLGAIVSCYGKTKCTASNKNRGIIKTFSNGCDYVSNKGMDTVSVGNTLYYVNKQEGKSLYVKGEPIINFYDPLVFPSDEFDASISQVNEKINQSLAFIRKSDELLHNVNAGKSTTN
Protocol Text: SPR (BIAcore), F protein amine-coupled, Mab injected at 25-300 nM
Please provide measured t1/2 (dissociation half-life) for the entries that follow.
Please state the figure in h; there is no need to write the unit.

Q) Can you look up the measured t1/2 (dissociation half-life) of murine monoclonal antibody MAb 1129 (antibody, V domains shown, also called M1129) VH: QVELQESGPGILQPSQTLSLTCSFSGFSLSTSGMSVGWIRQPSGEGLEWLADIWWDDKKDYNPSLKSRKTISKDTSSNQVFLKITGVDTADTATYYCARSMITNWYFDVWGAGTTVTVSS VL: DIQLTQSPAIMSASPGEKVTMTCSASSSVGYMHWYQQKSSTSPKLWIYDTSKLASGVPGRFSGSGSGNSYSLTISSIQAEDVATYYCFQGSGYPFTFGGGTKLEIK for me?
A) 0.48

Q) Consider the binder humanized 1129 (CDR-grafted anti-RSV F antibody, human IgG1/kappa) (antibody, V domains shown, also called H1129; Hu1129) VH: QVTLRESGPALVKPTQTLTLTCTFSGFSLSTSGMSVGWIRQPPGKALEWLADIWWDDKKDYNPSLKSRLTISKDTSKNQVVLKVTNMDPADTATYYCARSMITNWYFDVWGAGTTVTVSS VL: DIQMTQSPSTLSASVGDRVTITCKCQLSVGYMHWYQQKPGKAPKLWIYDTSKLASGVPSRFSGSGSGTEFTLTISSLQPDDFATYYCFQGSGYPFTFGGGTKLEIK and give its measured t1/2 (dissociation half-life).
A) 2.8

Q) Endpoint output: t1/2 (dissociation half-life) of murine monoclonal antibody MAb 1308F (antibody, V domains shown, also called M1308F; Mu1308F) VH: EVQKQQSGAELVRPGALVKLSCKASGFNIKDYYIYWVKQRPEQGLEWIGWIDPENGNTVFDPLFQGKASITSDTSSNTAYLQLSSLTSEDTAVYYCAYYGTSSFDFWGQGTTLTVSS VL: DIKMTQSPSSMYVSLGERVTITCKASQDINRYLNWFQQKPGKSPKTLIHRANRLVDGVPSRFSGSGSGQEYSLTISSLEFEDMGIYYCLQFHEFPYTFGGGTKLEIL . Value?
A) 5.1

Q) Look up t1/2 (dissociation half-life) for this binder: humanized 1308F (CDR-grafted anti-RSV F antibody, human IgG1/kappa) (antibody, V domains shown, also called H1308F; Hu1308F) VH: QVQLVQSGAEVKKPGASVKVSCKASGFNIKDYYIYWVRQAPGQGLEWIGWIDPENGNTVFDPKFNGRVTMTRDTSTSTVYMELSSLRSEDTAVYYCAYYGTSSFDFWGQGTTLTVSS VL: DIQMTQSPSTLSASVGDRVTITCKASQDINRYLNWYQQKPGKAPKLLIYRANRLVDGVPSRFSGSGSGTEFTLTISSLQPDDFATYYCLQFHEFPYTFGGGTKLEIL
A) 3.5
